Test: A CellTox Green Cytotoxicity Assay to monitor cytotoxicity in HepG2 cells - 24 hour (AID 1224878); note: nearly all actives have a fitted effect of over 45% in size
Conditions: CellTox Green fluorescence; series mostly up to 76.8 µM
Results filed as inconclusive are left out. Active and inactive are the calls of the source. Calls come from the whole dose curve; as a rule, active = well fitted activation curve with a large enough effect in the repeat runs; inconclusive = weak or mixed curves; inactive = flat fitted curve, though single readings scatter.
parameter-measured: outcome

# compound, outcome
data = [
    ("CC1CCC(C(C)CS)CC1S (configuration not stated)", "inactive"),
    ("COC(=O)c1sccc1S(N)(=O)=O", "inactive"),
    ("O=C(O)c1cccc(C[C@@H]2COc3ccc(OCc4nc5cc(F)ccc5s4)cc3[C@@H]2O)c1", "inactive"),
    ("O=C(O)c1ccc(O)cc1O", "inactive"),
    ("CSSc1ccoc1C", "inactive"),
    ("CCCCCCOC(=O)CCCCC", "inactive"),
]

Consider now this further compound.
Given the entry CCCCCCC(O)CCCCCCCCCCC(=O)OC (configuration not stated) , report its measured outcome.
inactive

Value source: PubChem BioAssay (Tox21)
